# Species: Rattus norvegicus
# ASSAY_REMARKS: Open TG-GATES - Regimen: Single
# Format: toxicity, organism-based, Sprague-Dawley
# Set-up: regimen Single, gender Male, age 6 weeks
# MEASUREMENT_PARAMETERS: in vivo, po, 300 mg/kg, 3 h, tissue Plasma, route gavage, dose level Middle
READOUT: PL (mg/dL)
State just the number; it will be interpreted in mg/dL.

Example results:
> print(dat)
                                   molecule  readout  observed.measurement
1                  Clc1ccccc1CN1CCc2sccc2C1       PL                 129.2
2          C[C@H](CS)C(=O)N1CCC[C@H]1C(=O)O       PL                   130
3          CCc1cc(C(N)=S)ccn1 [ETHIONAMIDE]       PL                 126.2
4  O=C(O)c1cn(C2CC2)c2cc(N3CCNCC3)c(F)cc2c1=O       PL                 145.6

Next item in the queue.
input: Return reported PL. Input molecule: O=C(O)c1cc(/N=N/c2ccc(S(=O)(=O)Nc3ccccn3)cc2)ccc1O
output: 140

###

# Species on record: Rattus norvegicus
# ASSAY_REMARKS: Open TG-GATES - Regimen: Single
# Type: toxicity, organism-based, Sprague-Dawley
# Set-up: regimen Single, gender Male, age 6 weeks
# MEASUREMENT_PARAMETERS: in vivo, po, 0 mg/kg, 9 h, tissue Plasma, route gavage, dose level Control
Entries and their measured TP follow.
Note: unit g/dL is implicit; provide only the numeric part.

# count of solved cases: 6
> print(dat)
                                   compound  readout  result.unit  observed.measurement
1         NC(=O)N/N=C/c1ccc([N+](=O)[O-])o1       TP         g/dL                   5.2
2            CN(C)CCC=C1c2ccccc2CCc2ccccc21       TP         g/dL                   5.4
3                  Clc1ccccc1CN1CCc2sccc2C1       TP         g/dL                   5.4
4  O=C(O)c1cn(C2CC2)c2cc(N3CCNCC3)c(F)cc2c1=O       TP         g/dL                   5.5
5     COc1ccc(Cc2nccc3cc(OC)c(OC)cc23)cc1OC       TP         g/dL                   5.3
6          CCc1cc(C(N)=S)ccn1 [ETHIONAMIDE]       TP         g/dL                   5.4

input: Quote TP reported for Cn1c(=O)c2[nH]cnc2n(C)c1=O.O please.
output: 5.5

input: # return recorded TP for entry O=C(O)c1cc(/N=N/c2ccc(S(=O)(=O)Nc3ccccn3)cc2)ccc1O
output: 5.5

input: Input CC(=O)Oc1ccccc1C(=O)O , output reported TP.
output: 5.6

input: Using the record for C[C@H](CS)C(=O)N1CCC[C@H]1C(=O)O , state its measured TP.
output: 5.4

input: Report TP for NC(=O)N1c2ccccc2C=Cc2ccccc21 [CARBAMAZEPINE]
output: 5.3

input: Return TP for the following compound: CSc1ccc2c(c1)N(CCC1CCCCN1C)c1ccccc1S2 (configuration not stated)
output: 5.6

###

# Species on record: Rattus norvegicus
# ASSAY_REMARKS: Open TG-GATES - Regimen: Single
# Assay type: toxicity, organism-based, Sprague-Dawley
# Set-up: regimen Single, gender Male, age 6 weeks
# MEASUREMENT_PARAMETERS: in vivo, po, 1000 mg/kg, 3 h, tissue Blood, route gavage, dose level High
READOUT: APTT (s)
API: value field is a number in s; no unit string.

Below: 4 molecules and their reported APTT.
> print(dat)
                                   molecule  observed.measurement
1  O=C(O)c1cc(/N=N/c2ccc(S(=O)(=O)Nc3ccccn3)cc2)ccc1O                  19.5
2  O=C(O)c1cn(C2CC2)c2cc(N3CCNCC3)c(F)cc2c1=O                    17
3                  Clc1ccccc1CN1CCc2sccc2C1                  17.9
4          CCc1cc(C(N)=S)ccn1 [ETHIONAMIDE]                  17.7

Kindly consider the entry below.
input: Hello, please tell me recorded APTT for this one: C[C@H](CS)C(=O)N1CCC[C@H]1C(=O)O
output: 16

###

Parameter: Hb. Scope: all listed entries.
# Species on record: Rattus norvegicus
# ASSAY_REMARKS: Open TG-GATES - Regimen: Single
# Assay type: toxicity, organism-based, Sprague-Dawley
# Design: regimen Single, gender Male, age 6 weeks
# MEASUREMENT_PARAMETERS: in vivo, po, 0 mg/kg, 3 h, tissue Blood, route gavage, dose level Control
Remember to put the unit after the number in your answer.

# annotated cases, reported Hb shown
> print(dat)
                                   molecule  observed.measurement
1  CSc1ccc2c(c1)N(CCC1CCCCN1C)c1ccccc1S2 (configuration not stated) [THIORIDAZINE]             12.9 g/dL
2  Cn1c(=O)c2[nH]cnc2n(C)c1=O.O [THEOPHYLLINE]             13.1 g/dL
3  NC(=O)N1c2ccccc2C=Cc2ccccc21 [CARBAMAZEPINE]             13.4 g/dL
4          CCc1cc(C(N)=S)ccn1 [ETHIONAMIDE]               14 g/dL
5  C[C@H](CS)C(=O)N1CCC[C@H]1C(=O)O [CAPTOPRIL]             13.1 g/dL

input: Supply Hb value. Item: Clc1ccccc1CN1CCc2sccc2C1 [TICLOPIDINE]
output: 13.2 g/dL

input: Complete the entry with Hb for CN(C)CCC=C1c2ccccc2CCc2ccccc21 [AMITRIPTYLINE]
output: 12.8 g/dL

###

Listed here: items and their measured RBC.
# Species on record: Rattus norvegicus
# ASSAY_REMARKS: Open TG-GATES - Regimen: Single
# Type: toxicity, organism-based, Sprague-Dawley
# Parameters: regimen Single, gender Male, age 6 weeks
# MEASUREMENT_PARAMETERS: in vivo, po, 0 mg/kg, 6 h, tissue Blood, route gavage, dose level Control
Numeric answer only, unit x10_4/ul assumed.

Worked examples follow.
> print(dat)
                                molecule  observed.measurement
1  COc1ccc(Cc2nccc3cc(OC)c(OC)cc23)cc1OC                   664
2         CN(C)CCC=C1c2ccccc2CCc2ccccc21                 615.8
3      NC(=O)N/N=C/c1ccc([N+](=O)[O-])o1                 576.2
4               Clc1ccccc1CN1CCc2sccc2C1                 632.8
5           Cn1c(=O)c2[nH]cnc2n(C)c1=O.O                 657.2

input: Please give the documented RBC of CC(=O)Oc1ccccc1C(=O)O
output: 632.8

input: Supply reported RBC belonging to this molecule: NC(=O)N1c2ccccc2C=Cc2ccccc21 [CARBAMAZEPINE]
output: 640.4

input: Identify the reported RBC for the following entry. CCc1cc(C(N)=S)ccn1 [ETHIONAMIDE]
output: 644

input: Note RBC for the molecule shown: CSc1ccc2c(c1)N(CCC1CCCCN1C)c1ccccc1S2 (configuration not stated)
output: 635.6

input: Indicate its recorded RBC; the molecule in question is C[C@H](CS)C(=O)N1CCC[C@H]1C(=O)O
output: 639.6

input: Give the value of RBC reported for the following: O=C(O)c1cn(C2CC2)c2cc(N3CCNCC3)c(F)cc2c1=O
output: 579

input: Please give measured RBC of the following entry: O=C(O)c1cc(/N=N/c2ccc(S(=O)(=O)Nc3ccccn3)cc2)ccc1O
output: 602.8

###

# Organism: Rattus norvegicus
# ASSAY_REMARKS: Open TG-GATES - Regimen: Single
# Assay type: toxicity, organism-based, Sprague-Dawley
# Design: regimen Single, gender Male, age 6 weeks
# MEASUREMENT_PARAMETERS: in vivo, po, 300 mg/kg, 6 h, tissue Plasma, route gavage, dose level Middle
READOUT: RALB (g/dL)
Numeric answer only, unit g/dL assumed.

Below, each entry is followed by its recorded RALB result.
> print(dat)
                                   molecule  observed.measurement
1                  Clc1ccccc1CN1CCc2sccc2C1                   3.4
2  O=C(O)c1cn(C2CC2)c2cc(N3CCNCC3)c(F)cc2c1=O                   3.8
3  O=C(O)c1cc(/N=N/c2ccc(S(=O)(=O)Nc3ccccn3)cc2)ccc1O                   3.4
4          CCc1cc(C(N)=S)ccn1 [ETHIONAMIDE]                   3.7

--- query ---
input: Determine from records and report RALB for C[C@H](CS)C(=O)N1CCC[C@H]1C(=O)O
output: 3.5
